Sourced from patent US20250025454A1

Experiment: in vivo
Details: female, 129S1, mouse, po, 50 mg/kg, tmax
recorded.metric: Tmax at 5 day
The answer should read as a number with its unit following.

// field: Tmax at 5 day; key: Cc1c(-c2ccc(O)cc2)n(Cc2ccc(OCCN3CCCCC3)cc2)c2ccc(O)cc12 [Pipendoxifene] ; value = 5 h

* * *

Assay: in vivo
Details: male, Sprague-Dawley, rat, po, 1000 mg/kg, Plasma concentration
recorded.metric: concentration at 0.25 hr
Record the result as number plus unit.

The recorded concentration at 0.25 hr for entry Cc1c(-c2ccc(O)cc2)n(Cc2ccc(OCCN3CCCCC3)cc2)c2ccc(O)cc12 [Pipendoxifene] equals 5.05 ng/mL
